B1: BTBD10 (parent)
chain: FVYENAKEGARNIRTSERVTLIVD

Variants of: B1
Protocol Notes: protein stability index of a GFP-peptide fusion (GPS, HEK-293T) (PSI 1-6); higher = more stable;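 further: lentivirally expressed fusions sorted by FACS into six bins by GFP to DsRed ratio, PSI derived from sequencing read proportions per bin multiplied by bin number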
Condition: c terminus: a fixed tail appended
Decide by protein stability index: equal to or exceeding 2 means Met, less means Not met.

Would you please look over these solved cases?
• L21Q = Met
• R11E = Met
• E17K = Met

Exam item: Check if protein stability index >= 2 (inclusive). Item: `G9F`
Marked response: Met

Exam item: Check if protein stability index >= 2 (inclusive). Item: `N5Q`
Marked response: Met

Exam item: Check if protein stability index >= 2 (inclusive). Item: `S16Q`
Marked response: Met

Exam item: Check if protein stability index >= 2 (inclusive). Item: `S16V`
Marked response: Not met

Exam item: Check if protein stability index >= 2 (inclusive). Item: `N5I`
Marked response: Not met

Exam item: Check if protein stability index >= 2 (inclusive). Item: `N5E`
Marked response: Met

Exam item: Check if protein stability index >= 2 (inclusive). Item: `D24E`
Marked response: Not met

Exam item: Check if protein stability index >= 2 (inclusive). Item: `T15H`
Marked response: Met

Exam item: Check if protein stability index >= 2 (inclusive). Item: `V2L`
Marked response: Met

Exam item: Check if protein stability index >= 2 (inclusive). Item: `A6R`
Marked response: Not met
